# Test system: NCI/ADR-RES ovarian
# test.protocol: NCI tumour cell line growth inhibition, 48 h; in the data active = GI50 below about 0.43 µM; inactive = the rest
Labels: active, inactive

compound=O=C(CN1C(=O)S/C(=C\C(Cl)=C\c2ccccc2)C1=O)NCCc1ccc(O)cc1 assigned_label=inactive
compound=N#Cc1c(N)nc(NCc2ccccc2)c(C#N)c1-c1ccccc1Cl assigned_label=inactive
compound=Cc1c(-c2nnc(-c3ccc(F)cc3)o2)nnn1-c1ccnc2c(C(F)(F)F)cccc12 assigned_label=inactive
compound=N=c1n(Cc2ccccc2)c(N)cc(=O)n1Cc1ccccc1 assigned_label=inactive
compound=O=C(O)c1c[nH]c2c(OCc3ccccc3)c3ccccc3c(O)c2c1=O assigned_label=inactive
compound="C=Cc1cc(OC)c2c(c1)c(=O)oc1c2cc(OC)c2c(O)ccc(C3OC(C)C(O)C(C)(O)C3O)c21 (stereo not drawn)" assigned_label=active
compound=CS(=O)(=O)c1ccc(Oc2cc(F)cc(C#N)c2)c2c1[C@H](O)C(F)(F)C2 assigned_label=inactive
compound=COc1ccc2cc(Cn3cc[n+](Cc4ccc5ccccc5c4)c3)ccc2c1 assigned_label=inactive
compound=CC(C)n1c(=O)n(C)c2cnc3cc(F)c(-c4ccc(OCCCN5CCCCC5)nc4)cc3c21 assigned_label=inactive
compound=N#C/C(=C1C=C/C(=N\O)C(Cl)=C\1)c1ccccc1 assigned_label=inactive
compound=Cc1ccc(-c2nc(N)c(C#N)c3c2CCOc2c-3ccc3ccccc23)cc1 assigned_label=active
compound=NC1=CC(=O)c2nc3ccccc3c3ccnc1c23 assigned_label=inactive
compound=COc1cccc(Cn2c(-c3nonc3NC(C)=O)nc3ccccc32)c1 assigned_label=inactive
compound=COc1cc(/C=C2\C(=O)N(c3ccccc3)c3ccccc32)cc(OC)c1OC assigned_label=inactive
compound=O=C1CC[C@H](c2ccc(O)c3c2C(=O)[C@@H]2O[C@@H]2C3=O)c2cccc(O)c21 assigned_label=inactive
compound=COC1=CC(c2ccc[nH]2)=N/C1=C\c1[nH]c(C)c(C(C)=O)c1C assigned_label=inactive
compound=O=C1/C(=C/c2ccccc2F)CN(C(=O)C(Cl)Cl)C/C1=C\c1ccccc1F assigned_label=active
compound=CCN(CC)CCCCNc1ncc2cc(-c3cc(OC)cc(OC)c3)c(NC(=O)NC(C)(C)C)nc2n1 assigned_label=inactive
